SYSTEM TESTED: UniProtKB Q08493
Sequence (Q08493 2-712): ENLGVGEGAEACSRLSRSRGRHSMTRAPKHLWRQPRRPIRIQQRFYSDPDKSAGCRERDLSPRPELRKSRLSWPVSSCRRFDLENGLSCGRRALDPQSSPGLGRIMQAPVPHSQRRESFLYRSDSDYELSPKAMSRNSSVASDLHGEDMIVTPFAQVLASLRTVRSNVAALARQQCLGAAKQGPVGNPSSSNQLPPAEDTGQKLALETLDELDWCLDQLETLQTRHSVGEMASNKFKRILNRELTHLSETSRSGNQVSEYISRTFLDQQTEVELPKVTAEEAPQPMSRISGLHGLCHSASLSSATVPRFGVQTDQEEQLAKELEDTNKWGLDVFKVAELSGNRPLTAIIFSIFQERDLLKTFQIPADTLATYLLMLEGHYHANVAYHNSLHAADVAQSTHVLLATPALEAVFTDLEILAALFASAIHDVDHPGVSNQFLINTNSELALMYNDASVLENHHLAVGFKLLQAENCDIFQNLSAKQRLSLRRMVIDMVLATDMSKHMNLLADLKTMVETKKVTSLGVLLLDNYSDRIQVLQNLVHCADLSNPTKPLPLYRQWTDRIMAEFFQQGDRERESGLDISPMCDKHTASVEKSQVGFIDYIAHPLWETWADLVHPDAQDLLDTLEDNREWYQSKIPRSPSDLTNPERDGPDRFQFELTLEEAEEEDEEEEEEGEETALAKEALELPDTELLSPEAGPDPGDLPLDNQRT
Counter-ions that a name gives are not always drawn.
Classify: True when IC50 is strictly less than 60 nM; False when IC50 is not.

[
  {
    "COMPOUND": "O=C(NC1CC1)c1nn2cc(F)cnc2c1-c1cc(F)c(Cl)c(F)c1",
    "GROUP LABEL": "True"
  },
  {
    "COMPOUND": "Cc1cc(C#N)c(F)cc1-c1c(C(=O)NC2CC2)nn2cc(F)cnc12",
    "GROUP LABEL": "True"
  },
  {
    "COMPOUND": "N#Cc1c(F)cc(-c2c(C(=O)N3CCC3)nn3cccnc23)cc1F",
    "GROUP LABEL": "True"
  },
  {
    "COMPOUND": "O=C(NC1CC1)c1nn2cccnc2c1-c1cc(Cl)ccc1F",
    "GROUP LABEL": "True"
  },
  {
    "COMPOUND": "O=C(c1nn2cccnc2c1-c1cccc(Cl)c1)N1CCC1",
    "GROUP LABEL": "False"
  },
  {
    "COMPOUND": "O=C(NC1CC1)c1nn2cccnc2c1-c1cc(F)c(Cl)c(F)c1 [Example 33, hydrochloride salt]",
    "GROUP LABEL": "False"
  },
  {
    "COMPOUND": "O=C(NC1CC1)c1nn2cc(F)cnc2c1-c1ccnc(OC(F)F)c1",
    "GROUP LABEL": "True"
  },
  {
    "COMPOUND": "O=C(c1nn2cc(F)cnc2c1-c1ccc(Cl)cc1)N1CCC1 [Example 9, Formate Salt]",
    "GROUP LABEL": "True"
  },
  {
    "COMPOUND": "CCNC(=O)c1nn2cccnc2c1-c1ccc(Cl)cc1",
    "GROUP LABEL": "False"
  },
  {
    "COMPOUND": "Cc1ccc(-c2c(C(=O)NC3CC3)nn3cccnc23)cc1F",
    "GROUP LABEL": "True"
  },
  {
    "COMPOUND": "CCCC(=O)Nc1nn2cccnc2c1-c1ccc(Cl)c(F)c1",
    "GROUP LABEL": "False"
  },
  {
    "COMPOUND": "N#Cc1cc(F)c(-c2c(C(=O)NC3CC3)nn3cccnc23)cc1F",
    "GROUP LABEL": "True"
  },
  {
    "COMPOUND": "N#Cc1ccc(-c2c(C(=O)N3CCC3)nn3cccnc23)cc1F",
    "GROUP LABEL": "True"
  },
  {
    "COMPOUND": "CN(C(=O)c1nn2cccnc2c1-c1ccc(Cl)cc1)C1CC1 [Example 35, hydrochloride salt]",
    "GROUP LABEL": "False"
  },
  {
    "COMPOUND": "O=C(NC1CC1(F)F)c1nn2cccnc2c1-c1ccc(Cl)c(F)c1 (stereo not shown)",
    "GROUP LABEL": "False"
  },
  {
    "COMPOUND": "O=C(NC1CC1)c1nn2cccnc2c1-c1cccc(Cl)c1 [Example 31, hydrochloride salt]",
    "GROUP LABEL": "False"
  },
  {
    "COMPOUND": "CCNC(=O)c1nn2cccnc2c1-c1cc(F)c(Cl)cc1F",
    "GROUP LABEL": "True"
  },
  {
    "COMPOUND": "N#Cc1ccc(-c2c(C(=O)NC3CC3)nn3cccnc23)cn1",
    "GROUP LABEL": "False"
  },
  {
    "COMPOUND": "O=C(NC1CC1)c1nn2cccnc2c1-c1ccc2ocnc2c1",
    "GROUP LABEL": "False"
  }
]
